- target: cyclin B/CDK1 enzyme (Homo sapiens, UniProt P06493)
- Construct: purchased New England BioLabs; host or cells: Sf9 insect cells, recombinant baculovirus
- Sequence (P06493 whole entry): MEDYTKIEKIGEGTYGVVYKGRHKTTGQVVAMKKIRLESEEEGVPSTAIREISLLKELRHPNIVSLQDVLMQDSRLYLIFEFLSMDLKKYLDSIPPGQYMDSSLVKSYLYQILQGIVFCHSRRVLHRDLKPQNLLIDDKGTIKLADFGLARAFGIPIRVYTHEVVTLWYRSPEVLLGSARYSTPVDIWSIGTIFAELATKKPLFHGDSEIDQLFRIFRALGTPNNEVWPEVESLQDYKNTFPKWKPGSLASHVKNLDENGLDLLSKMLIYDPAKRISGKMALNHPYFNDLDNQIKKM
- Sequence (P14635 whole entry partner): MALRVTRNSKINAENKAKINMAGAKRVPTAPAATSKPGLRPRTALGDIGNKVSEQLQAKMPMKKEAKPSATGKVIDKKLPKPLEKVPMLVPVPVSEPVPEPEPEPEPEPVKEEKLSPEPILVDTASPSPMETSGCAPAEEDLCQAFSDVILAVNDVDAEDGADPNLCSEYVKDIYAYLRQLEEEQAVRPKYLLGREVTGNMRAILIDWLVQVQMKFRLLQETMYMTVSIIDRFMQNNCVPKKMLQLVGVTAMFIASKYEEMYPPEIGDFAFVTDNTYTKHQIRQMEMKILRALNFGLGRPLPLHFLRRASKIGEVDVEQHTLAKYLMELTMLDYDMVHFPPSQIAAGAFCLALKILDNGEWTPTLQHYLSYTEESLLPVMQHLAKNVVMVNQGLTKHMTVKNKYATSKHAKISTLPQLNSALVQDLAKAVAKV
- assay.protocol: CDK1 ELISA kinase assay (phospho-Rb ser 795 detection)
- Assay type: biochemical
- test.settings: In Vitro Enzyme Assays, read-out: CDK1 IC50
Let's look at some compounds and their measured IC50.

As a guide, the following entries are already answered.
| compound | target | property.label | experimental.value |
| --- | --- | --- | --- |
| C[C@@H]1CN(c2ccc(N/C=C3\C(=O)NC(=O)c4ccc(-c5ccsc5)cc43)cc2)C[C@H](C)N1 | cyclin B/CDK1 enzyme (Homo sapiens, UniProt P06493) | IC50 | 41.9 µM |
| Nc1cccc(CN/C=C2\C(=O)NC(=O)c3ccc(Br)cc32)c1 | cyclin B/CDK1 enzyme (Homo sapiens, UniProt P06493) | IC50 | > 50 µM |
| COc1ccc(CN/C=C2\C(=O)NC(=O)c3ccccc32)cc1O | cyclin B/CDK1 enzyme (Homo sapiens, UniProt P06493) | IC50 | > 50 µM |

Query: Quick check: IC50 of `COc1cc2c(cc1-c1ccoc1)/C(=C/Nc1ccc(N3CCN(C)CC3)cc1)C(=O)NC2=O` ?
Result: > 50 µM

Query: What do you have for `O=C1NCc2ccccc2C1=CNc1ccc(CN2CCCCC2)cc1` ?
Result: > 50 µM

Query: What do you have for O=C1NC(=O)c2ccc(-c3ccsc3)cc2/C1=C/Nc1ccc(C2CC=CCN2)cc1 (centres unmarked) ?
Result: 25.3 µM

Query: What do you have for CN(C)C1CCN(Cc2ccc(N/C=C3\C(=O)NC(=O)c4ccc(I)cc43)cc2)C1 (centres unmarked) ?
Result: > 50 µM

Query: What do you have for CC(O)C1CCCN1Cc1ccc(N/C=C2\C(=O)NC(=O)c3ccc(I)cc32)cc1 (single isomer, unassigned) ?
Result: > 50 µM

====

- target: cyclin B/CDK1 enzyme (Homo sapiens, UniProt P06493)
- Construct: purchased New England BioLabs; host or cells: Sf9 insect cells, recombinant baculovirus
- assay.protocol: CDK1 ELISA kinase assay (phospho-Rb ser 795 detection)
- Format: biochemical
- test.settings: In Vitro Enzyme Assays, read-out: CDK1 IC50
pIC50: −log10 of the molar value.
property.label: pIC50

| cpd.smiles | experimental.value |
| --- | --- |
| C[C@@H]1CN(c2c(F)cc(N/C=C3\C(=O)NC(=O)c4ccc(-c5ccsc5)cc43)cc2F)C[C@H](C)N1 | 4.84 |

I: CC1(C)Oc2cc(CN/C=C3\C(=O)NC(=O)c4ccc(Br)cc43)cc(O)c2O1
II: Cn1ccc(CN/C=C2\C(=O)NC(=O)c3ccc(I)cc32)cc1=O
Query: Which of the two items, I and II , has the greater recorded pIC50? Give the label of your selection.
Result: II
(II: 4.90, I: 4.34)

====

Let's look at some compounds and their measured IC50.
- System: LoVo
- assay.protocol: Cytotoxicity assay (SRB), LoVo
- Type: cell-based
- test.settings: Homo sapiens, LoVo, 72 h, read-out: In Vitro Cellular Activity IC50 LOVO
Record the value in nM, omitting the unit from your answer.

| cpd.smiles | IC50, nM |
| --- | --- |
| CN1CCN(c2ccc(N/C=C3\C(=O)NC(=O)c4ccc(-n5cccc5)cc43)cc2)CC1 | 2000 |
| CN1C(=O)/C(=C\Nc2ccc(CN3CCCCC3)cc2)c2ccccc2C1=O | 11500 |

// next item, IC50 requested
Query: Quick check: IC50 of `O=C1NC(=O)c2ccc(C3CCCC3)cc2/C1=C/NCc1cc(O)c(-c2ccoc2)cn1` ?
Result: 300

====

- System: SK-UT-1B
- assay.protocol: In Vitro Cellular Activity (Table III), SK-UT-1B
- Type: cell-based
- test.settings: Homo sapiens, Skut1B; SK-UT-1B cells
property.label: IC50 (µM)

As a guide, the following entries are already answered.
| cpd.smiles | IC50 / µM |
| --- | --- |
| O=C1NC(=O)c2ccc(Br)cc2/C1=C/NCc1cccnc1 | 4.9 |
| O=C1NC(=O)c2ccccc2/C1=C/Nc1ccc(-c2ccccc2)cc1 | 19.7 |
| CN1CCN(c2ccc(N/C=C3\C(=O)NC(=O)c4ccccc43)cc2)CC1 | 12.7 |
| CC(C)(C)OC(=O)N1CCN(Cc2ccc(N/C=C3\C(=O)NC(=O)c4ccccc43)cc2)CC1 | 15 |
| CN1CCN(Cc2ccc(N/C=C3\C(=O)NC(=O)c4ccccc43)cc2)CC1 | 18.5 |

a: O=C1NC(=O)c2ccc(Br)cc2/C1=C/Nc1ccccc1CN1CCCCC1
b: O=C1NC(=O)c2ccccc2/C1=C/Nc1ccc(CN2CCC(O)CC2)cc1
c: O=C1NC(=O)c2ccccc2/C1=C/Nc1ccc(CN2CCCCCC2)cc1
Query: # ascending order, key=IC50 Reply format: the labels, ordered as requested.
Result: c, a, b
(c: 6.1 µM, a: 11 µM, b: 16.3 µM)

====

- Test system: BT474
- assay.protocol: Cytotoxicity assay (SRB), BT474
- Type: cell-based
- test.settings: Homo sapiens, BT-474, 144 h, read-out: In Vitro Cellular Activity IC50 BT474
Let's look at some molecules and their measured IC50.
Record the value in nM, omitting the unit from your answer.

| molecule | target | experimental.value |
| --- | --- | --- |
| O=C1NC(=O)c2ccc(C3CCCC3)cc2/C1=C/NCc1cc(O)c(-c2ccoc2)cn1 [Example 537] | BT474 | 130 |
| CC(C)(C)c1ccc2c(c1)/C(=C/NCc1cc(O)c(-c3ccoc3)cn1)C(=O)NC2=O [Example 532] | BT474 | 100 |
| CN1C(=O)/C(=C\Nc2ccc(CN3CCCCC3)cc2)c2ccccc2C1=O [Example 49] | BT474 | 6850 |
| CN1CCN(c2ccc(N/C=C3\C(=O)NC(=O)c4ccc(-n5cccc5)cc43)cc2)CC1 [compound 60] | BT474 | 2000 |

Query: Quick check: IC50 of O=C1NC(=O)c2ccc(I)cc2/C1=C/NCc1ccn(-c2ccsc2)c(=O)c1 [Example 539] ?
Result: 330

====

- Test system: MCF-7
- assay.protocol: Cytotoxicity assay (SRB), MCF-7
- Format: cell-based
- test.settings: Homo sapiens, MCF7, 72 h, MCF-7 cells, 3 days, SRB; read-out: In Vitro Cellular Activity IC50 MCF-7
Let's look at some compounds and their measured IC50.
Record the value in µM, omitting the unit from your answer.

| compound | target | experimental.value |
| --- | --- | --- |
| CC(C)(C)OC(=O)N1CCN(c2ccc(N/C=C3\C(=O)NC(=O)c4ccc(I)cc43)cn2)CC1 [Example 409] | MCF-7 | 36.6 |
| N#CCc1ccc(NC=C2C(=O)NC(=O)c3ccc(C=Cn4ccnc4)cc32)cc1 [Example 651] | MCF-7 | 37.1 |
| N#CCc1ccc(NC=C2C(=O)NC(=O)c3ccc(-c4cc5ccccc5o4)cc32)cc1 [Example 626] | MCF-7 | 34.1 |

Query: Quick check: IC50 of O=C1NC(=O)c2ccc(I)cc2/C1=C/Nc1ccc(N2CCN(C3CCC3)CC2)cc1 [Example 392] ?
Result: 4.2

====

- System: HCT-116
- assay.protocol: Cytotoxicity assay (SRB), HCT-116
- Format: cell-based
- test.settings: Homo sapiens, HCT-116, 72 h, HCT116 cells, 3 days, SRB; read-out: In Vitro Cellular Activity IC50 HCT116
Let's look at some molecules and their measured IC50.
Record the value in µM, omitting the unit from your answer.

As a guide, the following entries are already answered.
| molecule | target | property.label | experimental.value |
| --- | --- | --- | --- |
| CC(=O)c1cccc(-c2ccc3c(c2)C(=CNCc2ccc(O)c(O)c2)C(=O)NC3=O)c1 [Example 776] | HCT-116 | IC50 | 15.2 |
| COC1CCN(Cc2ccc(N/C=C3\C(=O)NC(=O)c4ccc(-c5ccc(F)cc5)cc43)cc2)CC1 [Example 395] | HCT-116 | IC50 | 2.3 |

Query: Quick check: IC50 of CN1CCN(c2ccc(NC=C3C(=O)NCc4cc(Br)ccc43)cc2)CC1 [Example 842] ?
Result: 4.5

Query: What do you have for C=CC(=O)Nc1cnc(CN/C=C2\C(=O)NC(=O)c3ccc(I)cc32)cc1O [Example 428] ?
Result: 0.77

Query: What do you have for O=C1NC(=O)c2ccc(-c3cccc(Cl)c3)cc2C1=CNCc1ccc(O)c(O)c1 [Example 779] ?
Result: 15

Query: What do you have for CN1CCN(c2ccc(NC=C3C(=O)NC(=O)c4ccc(C=Cc5ccc(C(F)(F)F)cc5)cc43)cc2)CC1 [Example 729] ?
Result: 1.4

Query: What do you have for CC(C)(C)c1ccc2c(c1)/C(=C/NCc1cc(O)c(-c3ccccc3)cn1)C(=O)NC2=O [Example 531] ?
Result: 0.15

Query: What do you have for CC(C)N1CCN(c2ccc(N/C=C3\C(=O)NC(=O)c4ccc(Br)cc43)nc2)CC1 [Example 486] ?
Result: 7.49
